Reference source for all entries: PubChem BioAssay (NCI)

Measured TGI values are reported for all entries that follow.
# Test system: MOLT-4 leukemia
# methodNotes: NCI tumour cell line growth inhibition, 48 h
# value in µM; strip the unit string

[
  {
    "querySmiles": "O=C(Nc1cccc(C(F)(F)F)c1)O/N=C(/Cl)CCl",
    "valueObserved": 79.6
  }
]

# input Data request, read-out TGI, for `CN(C)CCCN1c2nc3ccccc3cc2Sc2cc3ccccc3nc21`
# output 2.31

# input Cool, now `COc1ccc2c(c1OC)C1=C(C2=O)c2cc3c(cc2CCN1)OCO3`
# output 83.9

# input // next record `CC/C=C\C[C@H](O)C/C=C1/C(=O)C=C[C@@H]1C/C=C\CCCC(=O)N(C)C`
# output 12.8
